- tested system: KRas^G12D (Homo sapiens, UniProt P01116, G12D)
- Construct: […]; biotin (biotinylated)
- Sequence (P01116 1-169 isoform P01116-2 G12D): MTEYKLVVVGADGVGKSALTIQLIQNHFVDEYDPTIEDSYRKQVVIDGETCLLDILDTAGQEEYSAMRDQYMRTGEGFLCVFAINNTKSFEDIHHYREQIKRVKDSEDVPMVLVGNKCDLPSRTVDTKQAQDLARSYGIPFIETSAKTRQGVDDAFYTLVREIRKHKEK
- experiment: KRas binding assay (TR-FRET displacement of Cy5 labelled tracer)
reported endpoint: IC50 (µM)

Some solved cases for reference:
CCc1cccc2cccc(N3CCc4c(nc(OCC56CCCN5CCC6)nc4N4CCOC(CC(N)=O)C4)C3)c12 (centres unmarked) [Example 103] = 2.58
C[C@@]1(O)CCCN(c2nc(OCC34CCCN3CCC4)nc3c2CCN(c2cc(O)cc(Cl)c2C2CC2)C3)C1 [Example 204] = 0.006

1 = CCc1cccc2cccc(N3CCc4c(nc(OCC56CCCN5CCC6)nc4N4CCCC(c5nc(N)n(C)n5)C4)C3)c12 (centres unmarked) [Example 84]
2 = CCc1cccc2cccc(N3CCc4c(nc(OCC56CCCN5CCC6)nc4N4CCC(O)CC(C)C4)C3)c12 (centres unmarked) [Example 92]
I'd appreciate it if you could identify which of 1 and 2 has the greater IC50. To answer, give the label that identifies your chosen option.
1

1 = CCc1cccc2cccc(N3CCc4c(nc(OCC56CCCN5CCC6)nc4N4CCCCCCC4)C3)c12 [Example 54]
2 = CCc1cccc2cccc(N3CCc4c(nc(OCC56CCCN5CCC6)nc4N4CCC(c5[nH]ncc5N)C4)C3)c12 (centres unmarked) [Example 46]
Given 1 and given 2 , which shows the smaller recorded IC50? To answer, give the label that identifies your chosen option.
1
